# Tgt: T1, biotinylated recombinant human IL-12Rβ2 (human, UniProt Q99665 24-622, random biotinylated)
# T1 construct: Recombinant protein produced in-house, biotinylated; also called hIL-12RB2; human IL-12RB2
# T1 sequence: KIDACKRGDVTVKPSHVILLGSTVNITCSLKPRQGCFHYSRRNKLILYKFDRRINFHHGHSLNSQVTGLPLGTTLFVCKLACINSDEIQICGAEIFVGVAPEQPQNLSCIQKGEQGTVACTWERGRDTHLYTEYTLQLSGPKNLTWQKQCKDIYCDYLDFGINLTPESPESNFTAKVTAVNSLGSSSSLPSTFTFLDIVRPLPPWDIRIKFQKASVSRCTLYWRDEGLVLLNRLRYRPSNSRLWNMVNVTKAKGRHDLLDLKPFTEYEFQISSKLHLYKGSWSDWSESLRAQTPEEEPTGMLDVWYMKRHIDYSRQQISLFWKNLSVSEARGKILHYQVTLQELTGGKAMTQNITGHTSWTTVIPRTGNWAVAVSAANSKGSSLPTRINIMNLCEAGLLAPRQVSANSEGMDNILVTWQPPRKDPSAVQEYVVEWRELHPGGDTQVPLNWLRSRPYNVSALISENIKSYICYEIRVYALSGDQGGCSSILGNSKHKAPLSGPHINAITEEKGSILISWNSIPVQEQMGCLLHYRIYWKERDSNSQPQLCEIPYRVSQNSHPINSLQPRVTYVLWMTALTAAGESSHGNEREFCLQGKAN
# Assay Remarks: ELISA, periplasmic extract on biotinylated hIL-12Rβ2, signal over control wells
Readout Name: ELISA binding hIL-12RB2/control
Answer format reminder: number followed by unit.

[
  {
    "Binder": "anti-IL-12Rβ2 VHH clone 21053 (VHH, not shown: small tags and cut ends, tested as periplasmic extract; also called 3CRHM14) VHH: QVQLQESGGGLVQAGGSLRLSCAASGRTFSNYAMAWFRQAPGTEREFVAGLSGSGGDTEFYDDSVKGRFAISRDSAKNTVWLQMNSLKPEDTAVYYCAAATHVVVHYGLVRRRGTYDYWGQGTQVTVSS",
    "ELISA binding hIL-12RB2/control": "3.11 ratio"
  }
]

// lookup ELISA binding hIL-12RB2/control for anti-IL-12Rβ2 VHH clone 20481 (VHH, not shown: small tags and cut ends, tested as periplasmic extract; also called 2CAM38) VHH: QVQLQESGGGLVQAGGSLRLSCAASGRTFSSYGMGWFRQAPGKERDFVAAISRDARITDYADSVKGRFTISRDNVKNTVYLQMNSLNPEDTAVYFCAAAYTYSGSHYVTARSSDYHSWGQGTQVTVSS 0.983 ratio
